Where a name gives a salt, the structure may show the parent alone.
Listed below: melting point values for each entry.
value.type: melting point (°C)

[[record]]
molecule = "COc1ccc(-c2nnc(NC3CCN(Cc4ccc(NC=O)cc4)CC3)c3cc(OC)ccc23)cc1.Cl.Cl (hydrate or solvate)"
value_type = "melting point"
measurement_unit = "°C"
assay_value = 293

[[record]]
molecule = "COc1ccc(-c2nnc(NC3CCN(Cc4ccc5c(c4)OCO5)CC3)c3cc(OC)ccc23)cc1.Cl.Cl (hydrate or solvate)"
value_type = "melting point"
measurement_unit = "°C"
assay_value = 235

[[record]]
molecule = "COc1ccc(-c2nnc(NC3CCN(Cc4ccc(C)c(F)c4)CC3)c3cc(OC)ccc23)cc1"
value_type = "melting point"
measurement_unit = "°C"
assay_value = 210

[[record]]
molecule = "COc1ccc(-c2nnc(NC3CCN(Cc4ccc5[nH]ccc5c4)CC3)c3cc(OC)ccc23)cc1 (as salt: salt) (hydrate or solvate)"
value_type = "melting point"
measurement_unit = "°C"
assay_value = 281

[[record]]
molecule = "COc1ccc(-c2nnc(NC3CCN(Cc4ccc5occc5c4)CC3)c3cc(OC)ccc23)cc1 (as salt: salt) (hydrate or solvate)"
value_type = "melting point"
measurement_unit = "°C"
assay_value = 160

[[record]]
molecule = "COc1ccc2c(COc3ccccc3)nnc(NC3CCN(Cc4ccc5ccccc5c4)CC3)c2c1.Cl.Cl (hydrate or solvate)"
value_type = "melting point"
measurement_unit = "°C"
assay_value = 239


###

Counter-ions that a name gives are not always drawn.
We begin with a simple list: items and their reported melting point.
value.type: melting point (°C)

[[record]]
compound = "COc1ccc(-c2nnc(NC3CCN(Cc4c[nH]c5ccccc45)CC3)c3cc(OC)ccc23)cc1 (as salt: salt) (hydrate or solvate)"
assay_value = 257

[[record]]
compound = "COc1ccc(-c2nnc(NC3CCN(Cc4ccc(C(C)O)cc4)CC3)c3cc(OC)ccc23)cc1.Cl.Cl (stereo not drawn) (hydrate or solvate)"
assay_value = 208

[[record]]
compound = "COc1ccc(-c2nnc(NC3CCN(Cc4ccc5ccccc5c4)CC3)c3cc(OC)ccc23)cc1 (as salt: salt) (hydrate or solvate)"
assay_value = 195

[[record]]
compound = "Cl.Cl.c1ccc(-c2ccc3c(-c4ccccc4)nnc(NC4CCN(Cc5ccc6ccccc6c5)CC4)c3c2)cc1 (hydrate or solvate)"
assay_value = 224

[[record]]
compound = "COC(=O)c1ccc(CN2CCC(Nc3nnc(-c4ccc(OC)cc4)c4ccc(OC)cc34)CC2)cc1 (as salt: HCl) (hydrate or solvate)"
assay_value = 241

[[record]]
compound = "COc1ccc(OC)c(-c2nnc(NC3CCN(Cc4ccc5ccccc5c4)CC3)c3cc(OC)ccc23)c1.Cl.Cl (hydrate or solvate)"
assay_value = 240

[[record]]
compound = "COc1ccc(OC)c(-c2nnc(NC3CCN(Cc4ccc5c(c4)OCO5)CC3)c3cc(OC)ccc23)c1.Cl.Cl (hydrate or solvate)"
assay_value = 272

[[record]]
compound = "COc1ccc(-c2nnc(NC3CCN(Cc4ccc(CO)cc4)CC3)c3cc(OC)ccc23)cc1.Cl.Cl"
assay_value = 139

[[record]]
compound = "COc1ccc(-c2nnc(NC3CCN(Cc4ccc5ccccc5c4)CC3)c3cc(C)ccc23)cc1 (as salt: salt) (hydrate or solvate)"
assay_value = 198


###

We begin with a simple list: items and their reported melting point.
Structures can show the parent of a compound that is named as a salt.
value.type: melting point (°C)

[[record]]
molecule = "COc1ccc2cnnc(NC3CCN(Cc4ccc5ccccc5c4)CC3)c2c1 (as salt: HCl) (hydrate or solvate)"
assay_value = 189

[[record]]
molecule = "COc1cc(OC)c2cnnc(NC3CCN(Cc4ccccc4)CC3)c2c1 (as salt: salt) (hydrate or solvate)"
assay_value = 169

[[record]]
molecule = "COc1ccc(-c2nnc(NC3CCN(Cc4cccc(C#N)c4)CC3)c3cc(OC)ccc23)cc1 (as salt: salt) (hydrate or solvate)"
assay_value = 115


###

Counter-ions that a name gives are not always drawn.
value.type: melting point (°C)

[[record]]
molecule = "COc1ccc(OC)c(-c2nnc(NC3CCN(Cc4ccc5occc5c4)CC3)c3cc(OC)ccc23)c1.Cl.Cl (hydrate or solvate)"
value_type = "melting point"
measurement_unit = "°C"
assay_value = 250

[[record]]
molecule = "COc1ccc(-c2nnc(NC3CCN(Cc4ccc5ncccc5c4)CC3)c3cc(OC)ccc23)cc1 (as salt: salt) (hydrate or solvate)"
value_type = "melting point"
measurement_unit = "°C"
assay_value = 249

[[record]]
molecule = "COc1ccc(-c2nnc(NC3CCN(Cc4ccc(CN5CCCC5)cc4)CC3)c3cc(OC)ccc23)cc1.Cl.Cl.Cl (hydrate or solvate)"
value_type = "melting point"
measurement_unit = "°C"
assay_value = 222

[[record]]
molecule = "CCc1nnc(NC2CCN(Cc3ccc4ccccc4c3)CC2)c2cc(OC)ccc12 (as salt: salt) (hydrate or solvate)"
value_type = "melting point"
measurement_unit = "°C"
assay_value = 135

[[record]]
molecule = "COc1ccc(CN2CCC(Nc3nnc(-c4ccc(OC)cc4)c4ccc(OC)cc34)CC2)cc1.Cl.Cl (hydrate or solvate)"
value_type = "melting point"
measurement_unit = "°C"
assay_value = 216

[[record]]
molecule = "COc1ccc(-c2nnc(NC3CCN(Cc4ccc(CO)cc4)CC3)c3cc(OC)ccc23)cc1.Cl.Cl (hydrate or solvate)"
value_type = "melting point"
measurement_unit = "°C"
assay_value = 294


###

Where a name gives a salt, the structure may show the parent alone.
value.type: melting point (°C)

[[record]]
molecule = "COc1ccc(-c2nnc(NC3CCN(Cc4ccc5ccccc5c4)CC3)c3ccc(C)cc23)cc1 (as salt: salt) (hydrate or solvate) [Compound 142]"
assay_value = 134

[[record]]
molecule = "COc1ccc2c(-c3ccc(C)c(C)c3)nnc(NC3CCN(Cc4ccc5ccccc5c4)CC3)c2c1.Cl.Cl (hydrate or solvate)"
assay_value = 210

[[record]]
molecule = "COc1ccc(-c2nnc(NC3CCN(Cc4ccc(C)cc4)CC3)c3cc(OC)ccc23)cc1 (as salt: HCl) [Compound 75]"
assay_value = 148

[[record]]
molecule = "COc1ccc2c(-c3cccnc3)nnc(NC3CCN(Cc4ccc5ccccc5c4)CC3)c2c1.Cl.Cl.Cl (hydrate or solvate)"
assay_value = 225

[[record]]
molecule = "COc1cc(-c2ccccc2)c2cnnc(NC3CCN(Cc4ccc5ccccc5c4)CC3)c2c1.Cl.Cl (hydrate or solvate)"
assay_value = 199

[[record]]
molecule = "COc1ccc(-c2nnc(NC3CCN(Cc4ccc5c(ccn5C)c4)CC3)c3cc(OC)ccc23)cc1 (as salt: salt) (hydrate or solvate) [Compound 100]"
assay_value = 161

[[record]]
molecule = "COc1ccc(-c2nnc(NC3CCN(Cc4ccc(C#N)cc4)CC3)c3cc(OC)ccc23)cc1 (as salt: HCl) (hydrate or solvate) [Compound 108]"
assay_value = 270

[[record]]
molecule = "COc1ccc(-c2nnc(NC3CCN(Cc4ccc(C(C)=O)cc4)CC3)c3cc(OC)ccc23)cc1 (as salt: HCl) (hydrate or solvate) [Compound 121]"
assay_value = 241

[[record]]
molecule = "COc1ccc(-c2nnc(NC3CCN(Cc4ccc(Cl)cc4)CC3)c3cc(OC)ccc23)cc1.Cl.Cl (hydrate or solvate)"
assay_value = 277

[[record]]
molecule = "COc1ccc(-c2nnc(NC3CCN(C/C=C/c4ccccc4)CC3)c3cc(OC)ccc23)cc1.Cl.Cl (hydrate or solvate)"
assay_value = 210

[[record]]
molecule = "COc1ccc(-c2nnc(NC3CC4CCC(C3)N4Cc3ccc4ccccc4c3)c3cc(OC)ccc23)cc1 (stereo not shown) (as salt: salt) (hydrate or solvate)"
assay_value = 176

[[record]]
molecule = "COc1ccc(-c2nnc(NC3CCN(Cc4ccc(CN)cc4)CC3)c3cc(OC)ccc23)cc1.Cl.Cl.Cl (hydrate or solvate)"
assay_value = 284

[[record]]
molecule = "COc1cccc(-c2nnc(NC3CCN(Cc4ccc5ccccc5c4)CC3)c3cc(OC)ccc23)c1 (as salt: salt) (hydrate or solvate) [Compound 5]"
assay_value = 154


###

Where a name gives a salt, the structure may show the parent alone.
The threshold is inclusive: melting point of exactly 200 °C counts as class 1; values below receive class 0.

[[record]]
molecule = "CCc1ccc(CN2CCC(Nc3nnc(-c4ccc(OC)cc4)c4ccc(OC)cc34)CC2)cc1.Cl.Cl (hydrate or solvate)"
class = "class 1"

[[record]]
molecule = "COc1ccc2c(CO)nnc(NC3CCN(Cc4ccc5ccccc5c4)CC3)c2c1 (as salt: HCl) (hydrate or solvate) [Compound 148]"
class = "class 0"

[[record]]
molecule = "COCc1ccc(-c2nnc(NC3CCN(Cc4ccc5ccccc5c4)CC3)c3cc(OC)ccc23)cc1 (as salt: salt) (hydrate or solvate)"
class = "class 0"

[[record]]
molecule = "COc1ccc2c(-c3ccccc3)nnc(NC3CCN(Cc4ccc5ccccc5c4)CC3)c2c1 (as salt: salt) (hydrate or solvate)"
class = "class 0"

[[record]]
molecule = "COc1ccc(-c2nnc(N[C@H]3CCN(Cc4ccc5ccccc5c4)C3)c3cc(OC)ccc23)cc1 (as salt: HCl) (hydrate or solvate)"
class = "class 1"

[[record]]
molecule = "COc1ccc(-c2nnc(NC3CCN(Cc4ccc(CN(C)C)cc4)CC3)c3cc(OC)ccc23)cc1.Cl.Cl.Cl (hydrate or solvate)"
class = "class 1"

[[record]]
molecule = "COc1ccc(-c2nnc(NC3CCN(Cc4ccc(NC(C)=O)cc4)CC3)c3cc(OC)ccc23)cc1.Cl.Cl (hydrate or solvate)"
class = "class 1"

[[record]]
molecule = "COc1ccc(-c2nnc(NC3CCN(Cc4ccc5cc[nH]c5c4)CC3)c3cc(OC)ccc23)cc1 (as salt: salt) (hydrate or solvate)"
class = "class 1"

[[record]]
molecule = "COc1ccc(-c2nnc(NC3CCN(Cc4ccc5[nH]cnc5c4)CC3)c3cc(OC)ccc23)cc1"
class = "class 1"

[[record]]
molecule = "CCc1nnc(NC2CCN(Cc3ccc4ccccc4c3)CC2)c2cc(OC)cc(OC)c12 (as salt: salt) (hydrate or solvate)"
class = "class 1"

[[record]]
molecule = "COc1ccc(-c2nnc(NC3CCN(Cc4ccccc4)CC3)c3cc(OC)cc(OC)c23)cc1"
class = "class 0"

[[record]]
molecule = "COc1ccc2c(-c3ccc(Br)cc3)nnc(NC3CCN(Cc4ccc5ccccc5c4)CC3)c2c1.Cl.Cl (hydrate or solvate)"
class = "class 1"

[[record]]
molecule = "COc1cc(OC)c2c(Cc3ccccc3)nnc(NC3CCN(Cc4ccc5ccccc5c4)CC3)c2c1"
class = "class 0"

[[record]]
molecule = "COc1ccc2c(-c3ccc(F)cc3)nnc(NC3CCN(Cc4ccc5ccccc5c4)CC3)c2c1 (as salt: salt) (hydrate or solvate)"
class = "class 0"

[[record]]
molecule = "COc1ccc2c(-c3ccc(-c4ccccc4)cc3)nnc(NC3CCN(Cc4ccc5ccccc5c4)CC3)c2c1.Cl.Cl (hydrate or solvate)"
class = "class 1"

[[record]]
molecule = "COc1ccc2c(-c3ccccc3OC)nnc(NC3CCN(Cc4ccc5ccccc5c4)CC3)c2c1 (as salt: salt) (hydrate or solvate)"
class = "class 0"

[[record]]
molecule = "COc1ccc(-c2nnc(N[C@@H]3CCN(Cc4ccc5ccccc5c4)C3)c3cc(OC)ccc23)cc1.Cl.Cl (hydrate or solvate)"
class = "class 1"

[[record]]
molecule = "COCc1nnc(NC2CCN(Cc3ccc4c(c3)OCO4)CC2)c2cc(OC)ccc12.Cl.Cl (hydrate or solvate)"
class = "class 1"

[[record]]
molecule = "COc1ccc2c(C)nnc(NC3CCN(Cc4ccc5ccccc5c4)CC3)c2c1"
class = "class 0"

[[record]]
molecule = "COc1ccc2c(-c3cccs3)nnc(NC3CCN(Cc4ccccc4)CC3)c2c1 (as salt: salt) (hydrate or solvate)"
class = "class 0"

[[record]]
molecule = "COc1ccc(-c2nnc(NC3CCN(Cc4ccc5ccccc5c4)CC3)c3cc(Cl)ccc23)cc1.Cl.Cl (hydrate or solvate)"
class = "class 1"

[[record]]
molecule = "COc1ccc2c(CO)nnc(NC3CCN(Cc4ccc5ccccc5c4)CC3)c2c1 [Example 48]"
class = "class 0"

[[record]]
molecule = "COc1ccc(-c2nnc(NC3CCN(Cc4ccccc4)CC3)c3cc(OC)ccc23)cc1 (as salt: salt) (hydrate or solvate)"
class = "class 0"

[[record]]
molecule = "COc1ccc(-c2nnc(NC3CCN(Cc4ccc5ccccc5c4)CC3)c3cc(OC)ccc23)c(OC)c1.Cl.Cl (hydrate or solvate)"
class = "class 1"


The reported numbers originate from patent US7423030B2.
